Each record here notes measured fold change (FC).
Assay: Induction of H2S release in 10% PBS:MeCN solution at 5 mM incubated at 37 degC in dark condition measured at 96 hrs by 2, 6-dansyl azide probed-based fluorescence assay relative to GYY4137
Assay type: physicochemical
Conditions: buffer, 5000 µM
// response body must contain only the number

>>> endpoint_value("C1COCCN1.S=P(S)(c1ccc(Oc2ccccc2)cc1)N1CCOCC1 (centres undefined)")
0.9

// field: fold change (FC); key: COc1ccc(P(=S)(S)NCc2ccccc2)cc1.NCc1ccccc1 (centres undefined) ; value = 0.8

* * *

Test: Induction of H2S release in 10% PBS:MeCN solution at 0.5 mM incubated at 22 degC in dark condition measured at 48 hrs by 2, 6-dansyl azide probed-based fluorescence assay relative to control
Format: physicochemical
Settings: buffer, 500 µM
measured-parameter: %max

These solved cases illustrate the format of a correct answer.
>>> endpoint_value("NCC1CCCCC1.S=P(S)(NCC1CCCCC1)NCC1CCCCC1")
"0.82%"
>>> endpoint_value("C1CSCCN1.S=P(S)(N1CCSCC1)N1CCSCC1")
"48.5%"
>>> endpoint_value("C1COCCN1.S=P(S)(N1CCOCC1)N1CCOCC1")
"67.2%"

Reported %max of `NCc1ccccc1.S=P(S)(NCc1ccccc1)NCc1ccccc1` : 2.4%

* * *

Experiment: physchem
Conditions: DMSO, pH 7.4
Description: Kinetic solubility of the compound in DMSO at pH 7.4 measured at 3 hrs by multiscreen filter paper-based UV absorbance analysis
measured-parameter: solubility kinetic at 3 h

Reported solubility kinetic at 3 h for C1COCCN1.CC(C)OP(=S)(S)c1ccc(Oc2ccccc2)cc1 (stereo not drawn) was > 400 µg/mL

Field solubility kinetic at 3 h (entry NCc1ccccc1.S=P(S)(NCc1ccccc1)c1ccc(Oc2ccccc2)cc1 (stereo not drawn) ) reads 200 µg/mL

In plain terms, CCNCCOP(=S)(S)c1ccc(OC)cc1 (stereo not drawn) has a documented solubility kinetic at 3 h of > 290 µg/mL

* * *

Experiment: physchem
Settings: DMSO, pH 7.4
Description: Kinetic solubility of the compound in DMSO at pH 7.4 measured at 24 hrs by multiscreen filter paper-based UV absorbance analysis
measured-parameter: solubility kinetic at 24 h

Reference set (3 entries):
>>> endpoint_value("CCNCCOP(=S)(S)c1ccc(OC)cc1 (centres undefined)")
"> 290 µg/mL"
>>> endpoint_value("C1COCCN1.CC(C)OP(=S)(S)c1ccc(Oc2ccccc2)cc1 (centres undefined)")
"> 400 µg/mL"
>>> endpoint_value("COc1ccc(P(=S)(S)OCCCN)cc1 (centres undefined)")
"> 280 µg/mL"

Please turn your attention to the following entry.
Sample NCc1ccccc1.S=P(S)(NCc1ccccc1)c1ccc(Oc2ccccc2)cc1 (centres undefined) ; solubility kinetic at 24 h observed: 180 µg/mL

* * *

Catalogue of fold change (FC) readings, one per entry.
Test: Induction of H2S release in 10% PBS:MeCN solution at 0.5 mM incubated at 22 degC in dark condition measured at 48 hrs by 2, 6-dansyl azide probed-based fluorescence assay relative to 12 uM of GYY4137
Format: physicochemical
Details: buffer, 500 µM
Form rule: numeric answer, no unit written next to it.

Please review the following examples before continuing.
>>> endpoint_value("C1COCCN1.S=P(S)(N1CCOCC1)N1CCOCC1")
56
>>> endpoint_value("C1CSCCN1.S=P(S)(N1CCSCC1)N1CCSCC1")
40
>>> endpoint_value("NCc1ccccc1.S=P(S)(NCc1ccccc1)NCc1ccccc1")
2

Attention now turns to another entry.
According to the records, this compound `NCC1CCCCC1.S=P(S)(NCC1CCCCC1)NCC1CCCCC1` displays fold change (FC) of 6.8
